System: Proteus vulgaris HX 19
Experiment: Minimum Inhibitory Concentration, Proteus vulgaris HX 19
Format: cell-based
Conditions: HX19; Proteus vulgaris HX 19; read-out: Minimum Inhibitory Concentration
Would you kindly list MIC for each of these compounds?
Give bare numbers, in µg/mL.

// worked examples, MIC included
Inquiry: Record lookup: for Proteus vulgaris HX 19, what MIC belongs to Cc1nnc(SCC2=C(C(=O)O)N3C(=O)C(NC(=O)[C@H](NC(=O)c4cnc5nc(C)c(C)nc5c4O)c4ccc(O)cc4)C3SC2)s1 (stereo partly drawn) ?
Reply text: 1.56

Inquiry: Record lookup: for Proteus vulgaris HX 19, what MIC belongs to Cc1nnc(SCC2=C(C(=O)O)N3C(=O)[C@@H](NC(=O)[C@H](NC(=O)c4cnccc4O)c4ccc(NC(N)=O)cc4)[C@H]3SC2)s1 ?
Reply text: 0.1

Inquiry: Record lookup: for Proteus vulgaris HX 19, what MIC belongs to NC(=O)Nc1cccc([C@@H](NC(=O)c2cnc3cccnc3c2O)C(=O)N[C@@H]2C(=O)N3C(C(=O)O)=C(CSc4nnc(CO)s4)CS[C@H]23)c1 ?
Reply text: 0.2

Inquiry: Record lookup: for Proteus vulgaris HX 19, what MIC belongs to Cn1nnnc1SCC1=C(C(=O)O)N2C(=O)C(NC(=O)C(NC(=O)c3cnc4cccnc4c3O)c3ccc(CO)cc3)C2SC1 (stereo not drawn) ?
Reply text: 0.2

Give MIC for all compounds that follow.
1. O=C(O)C1=C(CSc2nncs2)CSC2C(NC(=O)C(NC(=O)c3cnc4cccnc4c3O)c3ccc(O)c(O)c3)C(=O)N12 (stereo not drawn)
2. Cn1nnnc1SCC1=C(C(=O)O)N2C(=O)C(NC(=O)[C@H](NC(=O)c3cnccc3O)c3ccc(O)cc3)C2SC1 (stereo partly drawn)

Reply text:
1. 0.2
2. 0.2

Numbers sourced from patent US4156724A.
